# Tested on: S. aureus Newman;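 further: first quartile when negative (synergy) and third quartile when positive (antagonism)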
# protocol-summary: Bliss interaction score (quartile over a dose matrix) (fitness difference); higher = more antagonism (negative = synergy)
Returns one of criterion met or criterion not met; criterion met when Bliss interaction score is >= 0.06.

Asked: Please indicate if the recorded Bliss interaction score for CN(C)C(=O)C(CCN1CCC(O)(c2ccc(Cl)cc2)CC1)(c1ccccc1)c1ccccc1 [Loperamide] + Cc1cc(NS(=O)(=O)c2ccc(N)cc2)no1 [Sulfamethoxazol] meets or exceeds 0.06.
Given back: criterion met

Asked: Also check CCN(CC)CCOC(=O)c1ccc(N)cc1 [Procaine] + COc1ccc(C[C@H](N)C(=O)N[C@H]2[C@@H](O)[C@H](n3cnc4c(N(C)C)ncnc43)O[C@@H]2CO)cc1 [Puromycin]
Given back: criterion met

Asked: Also check CCN(CC)CCOC(=O)c1ccc(N)cc1 [Procaine] + CO[C@H]1/C=C/O[C@@]2(C)Oc3c(C)c(O)c4c(O)c(c(/C=N/N5CCN(C)CC5)c(O)c4c3C2=O)NC(=O)/C(C)=C\C=C\[C@H](C)[C@H](O)[C@@H](C)[C@@H](O)[C@@H](C)[C@H](OC(C)=O)[C@@H]1C [Rifampicin]
Given back: criterion not met

Asked: Also check C[C@H]1COc2c(N3CCN(C)CC3)c(F)cc3c(=O)c(C(=O)O)cn1c23 [Levofloxacin] + CN(C)C(=O)C(CCN1CCC(O)(c2ccc(Cl)cc2)CC1)(c1ccccc1)c1ccccc1 [Loperamide]
Given back: criterion not met

Asked: Also check CN(C)C(=O)C(CCN1CCC(O)(c2ccc(Cl)cc2)CC1)(c1ccccc1)c1ccccc1 [Loperamide] + CO[C@@]12[C@H](COC(N)=O)C3=C(C(=O)C(C)=C(N)C3=O)N1C[C@@H]1N[C@@H]12 [MitomycinC]
Given back: criterion not met

Asked: Also check CC1(C)S[C@@H]2[C@H](NC(=O)[C@H](N)c3ccc(O)cc3)C(=O)N2[C@H]1C(=O)O [Amoxicillin] + Cn1nnc(-c2ccc(-c3ccc(N4C[C@H](CO)OC4=O)cc3F)cn2)n1 [Tedizolid]
Given back: criterion not met

Asked: Also check CC1(C)S[C@@H]2[C@H](NC(=O)[C@H](N)c3ccc(O)cc3)C(=O)N2[C@H]1C(=O)O [Amoxicillin] + CO/N=C(\C(=O)N[C@@H]1C(=O)N2C(C(=O)O)=C(COC(C)=O)CS[C@H]12)c1csc(N)n1 [Cefotaxime]
Given back: criterion not met

Cited source for all entries: the supplement of paper PMC10627819
